Where these numbers come from: the NIST ThermoML archive (doi:10.1021/je050196o)

- particulars: 308.15 K; 101 kPa; Liquid; Capillary tube (Ostwald / Ubbelohde) method
experimental readout: viscosity (mPa·s)

C=C(C)C(=O)O | 1.078

(A) C=C(C)C(=O)OCCO [2-hydroxyethyl 2-methyl-2-propenoate]
(B) C=C(C)C(=O)OCc1ccccc1 [benzyl methacrylate]
(C) COCC(C)OC(C)=O (centres undefined) [1-methoxy-2-propyl acetate]
Task item: Hello, I need these entries ordered by viscosity, highest reading first. Thanks! Rank the items, then write their labels in that order.
Reply: A, B, C

----------
- particulars: 318.15 K; 101 kPa; Liquid; Pycnometric method
experimental readout: mass density (kg/m3)

C=C(C)C(=O)OCc1ccccc1 [benzyl methacrylate] | 1017
C=C(C)C(=O)OCCO [2-hydroxyethyl 2-methyl-2-propenoate] | 1048.6
C=C(C)C(=O)O | 989.2
COCC(C)OC(C)=O (centres undefined) [1-methoxy-2-propyl acetate] | 940.7

----------
- particulars: 298.15 K; 101 kPa; Liquid; Pycnometric method
experimental readout: mass density (kg/m3)

COCC(C)OC(C)=O (centres undefined) [1-methoxy-2-propyl acetate] | 961.4
C=C(C)C(=O)OCCO [2-hydroxyethyl 2-methyl-2-propenoate] | 1067.1
C=C(C)C(=O)O [2-methyl-2-propenoic acid] | 1009.5
C=C(C)C(=O)OCc1ccccc1 [benzyl methacrylate] | 1034.7

----------
- particulars: 308.15 K; 101 kPa; Liquid; Pycnometric method
experimental readout: mass density (kg/m3)

COCC(C)OC(C)=O (centres undefined) [1-methoxy-2-propyl acetate] | 951.4
C=C(C)C(=O)O | 999.4
C=C(C)C(=O)OCCO [2-hydroxyethyl 2-methyl-2-propenoate] | 1057.7
C=C(C)C(=O)OCc1ccccc1 [benzyl methacrylate] | 1025.8

----------
- particulars: 318.15 K; 101 kPa; Liquid; Capillary tube (Ostwald / Ubbelohde) method
experimental readout: viscosity (mPa·s)

Check out these entries, answers already filled in.
COCC(C)OC(C)=O (centres undefined) [1-methoxy-2-propyl acetate] | 0.777
C=C(C)C(=O)O | 0.945

(A) C=C(C)C(=O)OCCO [2-hydroxyethyl 2-methyl-2-propenoate]
(B) C=C(C)C(=O)OCc1ccccc1 [benzyl methacrylate]
Task item: Larger number for viscosity: A , or B ? Bench note: the answer is the label of the chosen record.
Reply: A
(A: 3.181 mPa·s, B: 1.58 mPa·s)

----------
- particulars: 298.15 K; 101 kPa; Liquid; Capillary tube (Ostwald / Ubbelohde) method
experimental readout: viscosity (mPa·s)

(A) COCC(C)OC(C)=O (centres undefined) [1-methoxy-2-propyl acetate]
(B) C=C(C)C(=O)OCc1ccccc1 [benzyl methacrylate]
Task item: Larger number for viscosity: A , or B ? Bench note: the answer is the label of the chosen record.
Reply: B
(B: 2.302 mPa·s, A: 1.071 mPa·s)

(A) C=C(C)C(=O)O
(B) C=C(C)C(=O)OCCO [2-hydroxyethyl 2-methyl-2-propenoate]
Task item: Larger number for viscosity: A , or B ? Bench note: the answer is the label of the chosen record.
Reply: B
